Source: patent US20220195015A1

test_target: SARS-CoV-2 spike protein on HIV-1 pseudotyped particles (SARS-CoV-2, UniProt P0DTC2 14-1254)
protocol: cell-based or functional assay
Use true when the recorded Neutralization IC90 is no lower than 0.09 µg/mL; use false when it is lower.

Consider the following illustrative entries.
• C095 (antibody, V domains shown) VH: VQLVEAGGGVVQPGRSLRLSCAASGLAFSIYGMHWVRQAPGKGLEWVAIVAQDGSKKYYADSVKGRFTISRDNSKNTLYLEMNSLRTEDTAVYYCVKEGRPSDTVVVVAFDYWGQGSLVTVSS VL: DIQLTQSPSSLSASVGDRVTITCRASQSISNYLNWYQQKPGKAPKVIIYAASSLQSGVPSRFSGSGSGTDFTLTISSLQPEDFATYYCQQSHSIPRTFGQGTKVEIK = false
• C045 (antibody, V domains shown) VH: EVQLVESGGGLVQPGGSLRLSCAASGFTFSTYSMNWVRQAPGKGLEWVSYISSSSSTIHYADSVKGRFTISRDNAKNSLYLQMNSLRDEDTAVYYCAREAHDGALTDYGDYLNWFDPWGQGTLVTVSS VL: SYELTQPPSVSVAPGKTARITCGGTNIGSKNVHWYQQKPGQAPVLVIYYDNDRPSGIPERFSGSNSGNTATLTISRVEAGDEADYYCQVWDTTSDHFYWVFGGGTKLTVL = true

Given the entry C097 (antibody, V domains shown) VH: QVQLQESGPGLVKPSQTLSLTCTVSGGSISSGPYYWSWIRQHPGKGLEWIGYIYYSGSTYYNPSLKSRVTISVDTSKKQFSLNLNSVTAADTAVYYCARVWQYYDSTGSFDYWGQGTLVTVSS VL: DIVMTQSPLSLPVTPGEPASISCRSSRGLLHSNGYNYLDWYLQKPGQSPQLLIYLGSNRASGVPDRFSGSGSVTDFTLNISRVEAEDVGVYYCMQALQTPFTFGPGTKVDIK , answer whether its Neutralization IC90 meets or surpasses 0.09 µg/mL.
false

Given the entry C099 (antibody, V domains shown) VH: EVQLVESGGGLIQPGGSLRLSCAASGITVSSNYMSWVRQAPGKGLEWVSVMYAGGSTFYADSVKGRFTISRDDSKNTLFLQMNSLRAEDTAIYYCARDLYSSGGTDIWGQGTMVTVSS VL: EIVLTQSPGTLSLSPGERATLSCRASQSIGSSYLAWYQQKPGLAPRLLIYGASRRATGIPDKFSGSGSGADFTLTISRLEPEDFAVYYCQQYGSSPGTFGQGTKVEIK , answer whether its Neutralization IC90 meets or surpasses 0.09 µg/mL.
false

Given the entry C043 (antibody, V domains shown) VH: QLVQSGPEVKKPGTSVKVSCKASGFTFYNSAVQWVRQARGQRLEWVGWIVVGSGNTDYAQKFQERVTMTRDLSTNTAYMEVNSLRSEDTAVYYCAAPYCSGGTCLDGFDIWGQGTMVTVSS VL: EIVLTQSPGTLSLSPGERGTLSCRASQSVRSNYLAWYKQRPGQAPRLLVYGASSRATGIPDRFSGSGSGTDFTLTISRLEPEDFAVYYCQQYGSSPWTFGQGTKVEIK , answer whether its Neutralization IC90 meets or surpasses 0.09 µg/mL.
false

Given the entry C049 (antibody, V domains shown) VH: QVQLQESGPGLVKPSETLSLTCTVSGGSVSSGTFYWSWIRQPPGKGLEWIGYIHYSGSTNYNPSLKSRVTISVDTSKNQFSLRLSSVTAADTAVYYCARESFYYDRSGYYGSDAFDIWGQGTMVTVSS VL: DIQMTQSPSTLSSSVGDRVTITCRASQNISRWLAWYQQKPGKAPKLLIYKASTLESGVPSRFSGSGSGTKFTLTISSLQPDDFATYYCQQYNSYLYTFGQGTKLEIK , answer whether its Neutralization IC90 meets or surpasses 0.09 µg/mL.
true

Given the entry C044 (antibody, V domains shown) VH: EVQLVESGGGLVQPGGSLRLSCAASGFTFSSYSMNWVRQAPGKGLEWVSYISSSSSTIYYADSVKGRFTISRDNAKNSLYLQMNSLRDEDTAVYYCAREAHDGALTDYGDYLNWFDPWGQGTLVTVSS VL: SYELTQPPSVSVAPGKTARITCGGNNIGSKSVHWYQQKPGQAPVLVIYYDSDRPSGIPERFSGSNSGNTATLTISRVEAGDEADYYCQVWDSSSDHLYWVFGGGTKLTVL , answer whether its Neutralization IC90 meets or surpasses 0.09 µg/mL.
true
